# ASSAYED_TARGET: Sphingosine 1-phosphate receptor 1 (Homo sapiens)
# ASSAY_PROCEDURE: Antagonist activity at S1P1 receptor expressed in HEK293 cells assessed as inhibition of S1P-induced cAMP response after 90 mins by spectrophotometry
# Assay type: functional, cell-based
PARAMETER_MEASURED: IC50 (nM)

I = Cn1cnc(CC(=O)N[C@@H](COCc2ccccc2)C(=O)Nc2ccc(Oc3ccccc3)cc2)c1
II = O=C(Cc1cnc[nH]1)N[C@@H](CCCc1ccccc1)C(=O)Nc1ccc(Oc2ccccc2)cc1
Between the entries labelled I and II , which has a larger IC50 value on record? When you have decided, please share the label of that item.
I

* * *

# ASSAY_PROCEDURE: Drug uptake in nu/nu homozygous mouse plasma at 100 mg/kg, po as a solution of 10% EtOH/40% PEG400/20% Captisol/water + 1:1 HCl after 4 hrs by HPLC/MS/MS analysis
# Assay type: ADME, organism-based
# Parameters: dose 100 mg/kg, route oral
PARAMETER_MEASURED: concentration at 4 h (nM)
Express the result in nM but write the number alone.

Given the entry `O=C(Cc1c[nH]cn1)N[C@@H](COCc1ccccc1)c1nc2cc(Oc3ccc(F)cc3)ccc2[nH]1` , report its measured concentration at 4 h.
2700

* * *

# ASSAYED_TARGET: Sphingosine 1-phosphate receptor 3 (Homo sapiens)
# Sequence (Q99500 whole entry): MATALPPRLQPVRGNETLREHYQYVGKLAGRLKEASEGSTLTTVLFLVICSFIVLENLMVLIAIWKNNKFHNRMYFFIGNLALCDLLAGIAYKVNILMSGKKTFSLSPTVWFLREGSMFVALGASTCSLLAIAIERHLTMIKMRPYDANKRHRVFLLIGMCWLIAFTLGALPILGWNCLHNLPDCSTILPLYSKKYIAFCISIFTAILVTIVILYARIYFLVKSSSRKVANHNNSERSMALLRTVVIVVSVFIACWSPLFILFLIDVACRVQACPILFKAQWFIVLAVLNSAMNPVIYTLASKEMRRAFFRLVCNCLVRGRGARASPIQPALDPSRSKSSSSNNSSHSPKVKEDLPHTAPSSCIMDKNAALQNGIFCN
# ASSAY_PROCEDURE: Antagonist activity at S1P3 receptor expressed in HEK293 cells assessed as inhibition of S1P-induced tango beta-arrestin recruitment preincubated for 30 mins prior S1P addition measured after 16 to 18 hrs by luciferase reporter gene assay
In this section, each of the molecules is paired with its reported IC50.

>  <MOLECULE>
CN(CC(=O)NC(COCc1ccccc1)C(=O)Nc1ccc(Oc2ccccc2)cc1)C(=O)c1ccccc1 (racemic)

>  <VALUE_OBSERVED>
> 10 µM

$$$$
>  <MOLECULE>
O=C(Nc1ccc(Oc2ccc(F)cc2)cc1)[C@@H]1C[C@@H](Cc2ccc(F)cc2)CN1C(=O)Cn1ccnn1

>  <VALUE_OBSERVED>
> 10 µM

$$$$

Which IC50 value is on record for `O=C(Cc1c[nH]cn1)N[C@@H](COCc1ccccc1)C(=O)Nc1ccc(Oc2ccc(F)cc2)cc1` ?
> 10 µM

* * *

# ASSAY_PROCEDURE: Cmax in overnight fasted cynomolgus monkey at 3 mg/kg, po by HPLC/MS/MS analysis
# Assay type: ADME, organism-based, Macaca fascicularis
# Set-up: dose 3 mg/kg, route oral
# CONDITION_LABEL: in vivo
PARAMETER_MEASURED: Cmax (nM)
Express the result in nM but write the number alone.

For the molecule shown here, `O=C(Nc1ccc(Oc2ccc(F)cc2)cc1)[C@@H]1C[C@@H](Cc2ccc(F)cc2)CN1C(=O)Cn1ccnn1` , give the reported Cmax.
1500

* * *

# ASSAYED_TARGET: UniProt:P10635
# Sequence (P10635 whole entry): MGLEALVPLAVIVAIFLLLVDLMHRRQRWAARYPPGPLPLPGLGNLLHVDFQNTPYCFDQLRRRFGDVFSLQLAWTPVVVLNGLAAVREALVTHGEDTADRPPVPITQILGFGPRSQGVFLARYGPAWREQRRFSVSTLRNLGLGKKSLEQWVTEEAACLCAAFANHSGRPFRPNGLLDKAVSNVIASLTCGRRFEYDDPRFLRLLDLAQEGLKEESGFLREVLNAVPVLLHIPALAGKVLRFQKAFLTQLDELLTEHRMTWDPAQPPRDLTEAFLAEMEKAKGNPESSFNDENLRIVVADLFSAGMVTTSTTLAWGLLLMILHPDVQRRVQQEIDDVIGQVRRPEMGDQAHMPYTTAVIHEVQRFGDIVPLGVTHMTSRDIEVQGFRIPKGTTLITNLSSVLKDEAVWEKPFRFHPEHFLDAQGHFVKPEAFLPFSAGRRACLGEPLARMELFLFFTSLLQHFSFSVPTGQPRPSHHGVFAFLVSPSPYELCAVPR
pIC50: −log10 of the molar value.
PARAMETER_MEASURED: pIC50

1 = O=C(Nc1ccc(Oc2ccc(F)cc2)cc1)[C@@H]1C[C@@H](Cc2ccccc2)CN1C(=O)Cc1cnc[nH]1
2 = O=C(Nc1ccc(Oc2ccc(F)cc2)cc1)[C@@H]1C[C@H](Cc2ccc(F)cc2)CN1C(=O)Cn1cncn1
Input pair: 1 , 2 . Output: entry with lower pIC50. State the label of the item chosen.
2
(2: 5.42, 1: 5.93)

* * *

# ASSAY_PROCEDURE: Drug uptake in nu/nu homozygous mouse plasma at 100 mg/kg, po as a suspension in 10% NMP/corn oil after 4 hrs by HPLC/MS/MS analysis
# Type: ADME, organism-based
# Design: dose 100 mg/kg, route oral
PARAMETER_MEASURED: concentration at 4 h (µM)

a = O=C(Nc1ccc(Oc2ccc(F)cc2)cc1)[C@@H]1C[C@@H](Cc2ccccc2)CN1C(=O)Cn1cncn1
b = O=C(Nc1ccc(Oc2ccc(F)cc2)cc1)[C@@H]1C[C@@H](Cc2ccc(F)cc2)CN1C(=O)Cn1ccnn1
Which of these two has the smaller recorded concentration at 4 h: a or b ? I would appreciate it if you answered with the label of your choice.
b

A = O=C(Nc1ccc(Oc2ccc(F)cc2)cc1)[C@@H]1C[C@@H](Cc2ccc(F)cc2)CN1C(=O)Cn1cncn1
B = O=C(Nc1ccc(Oc2ccc(F)cc2)cc1)[C@@H]1C[C@@H](Cc2ccccc2)CN1C(=O)Cc1cnc[nH]1
In terms of reported concentration at 4 h, does A or B have the smaller number? Mark your answer with the label of the selected entry.
B

* * *

# IC50 per entry for Cytochrome P450 2C9 (Homo sapiens)
PARAMETER_MEASURED: IC50 (µM)

I = O=C(Nc1ccc(Oc2ccc(F)cc2)cc1)[C@@H]1C[C@@H](Cc2ccc(F)cc2)CN1C(=O)Cn1nccn1
II = O=C(Nc1ccc(Oc2ccc(F)cc2)cc1)[C@@H]1C[C@H](Cc2ccc(F)cc2)CN1C(=O)Cn1cncn1
Which one would you say has the larger IC50 value: I , or II ? Please indicate the selected item by its label.
I
(I: 17.4 µM, II: 1.35 µM)

A = O=C(Nc1ccc(Oc2ccc(F)cc2)cc1)[C@@H]1C[C@@H](c2ccccc2)CN1C(=O)Cc1cnc[nH]1
B = O=C(Nc1ccc(Oc2ccc(F)cc2)cc1)[C@@H]1C[C@@H](Cc2ccc(F)cc2)CN1C(=O)Cn1ccnn1
Between the two listed entries A and B , which has its IC50 at the higher number? Kindly state the label of the option you pick.
B
(B: 17.3 µM, A: 0.213 µM)

* * *

# ASSAY_PROCEDURE: Drug uptake in nu/nu homozygous mouse plasma at 100 mg/kg, po as a solution in 10% EtOH/40% PEG400/water + 1:1 HCl after 1 hr by HPLC/MS/MS analysis
# Format: ADME, organism-based
# Set-up: dose 100 mg/kg, route oral
PARAMETER_MEASURED: concentration at 1 h (µM)

A = O=C(Cc1cnc[nH]1)N[C@@H](COCc1ccccc1)C(=O)Nc1ccc(Oc2ccccc2)cc1
B = O=C(Cc1c[nH]cn1)N[C@@H](COCc1ccccc1)C(=O)Nc1ccc(Oc2ccc(F)cc2)cc1
Lab notebook, comparison: A versus B , higher concentration at 1 h goes to which? Let me know the label of the one you choose.
B
(B: 8 µM, A: 5 µM)

* * *

# ASSAYED_TARGET: Sphingosine 1-phosphate receptor 1 (Homo sapiens, UniProt P21453)
# Sequence (P21453 whole entry): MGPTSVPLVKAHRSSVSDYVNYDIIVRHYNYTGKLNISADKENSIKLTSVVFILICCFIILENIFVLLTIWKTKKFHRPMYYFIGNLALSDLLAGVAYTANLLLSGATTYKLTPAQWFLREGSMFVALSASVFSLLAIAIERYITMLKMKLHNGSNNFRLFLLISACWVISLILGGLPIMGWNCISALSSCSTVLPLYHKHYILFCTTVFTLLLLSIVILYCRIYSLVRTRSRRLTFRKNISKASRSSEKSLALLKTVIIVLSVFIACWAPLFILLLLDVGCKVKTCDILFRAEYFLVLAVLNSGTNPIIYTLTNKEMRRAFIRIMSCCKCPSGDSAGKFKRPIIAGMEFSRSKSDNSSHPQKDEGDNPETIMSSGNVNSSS
# ASSAY_PROCEDURE: Antagonist activity at S1P1 receptor expressed in HEK293 cells assessed as inhibition of S1P-induced cAMP response after 90 mins by spectrophotometry
# Type: functional, cell-based
pIC50: −log10 of the molar value.
PARAMETER_MEASURED: pIC50

Past entries and their recorded results:
>  <COMPOUND>
CN(CC(=O)N[C@@H](COCc1ccccc1)C(=O)Nc1ccc(Oc2ccccc2)cc1)C(=O)c1ccccc1

>  <pIC50>
6.26

$$$$
>  <COMPOUND>
CN(C(=O)[C@H](COCc1ccccc1)NC(=O)Cc1cnc[nH]1)c1ccc(Oc2ccccc2)cc1

>  <pIC50>
5.08

$$$$
>  <COMPOUND>
O=C(Cc1cnc[nH]1)N[C@@H](COCc1ccccc1)C(=O)Nc1ccc(OC2CCCCC2)cc1

>  <pIC50>
6.15

$$$$
>  <COMPOUND>
O=C(Cc1c[nH]cn1)N[C@@H](COCc1ccccc1)C(=O)Nc1ccc(OCc2ccccc2)cc1

>  <pIC50>
6.82

$$$$
>  <COMPOUND>
O=C(Nc1ccc(Oc2ccc(F)cc2)cc1)[C@@H]1C[C@@H](c2ccccc2)CN1C(=O)Cn1cncn1

>  <pIC50>
6.31

$$$$

P = O=C(Cc1cnc[nH]1)N[C@@H](COCc1ccccc1)C(=O)Nc1ccc(Oc2ccccc2)cc1
Q = CN(CC(=O)NC(COCc1ccccc1)C(=O)Nc1ccc(Oc2ccccc2)cc1)C(=O)c1ccccc1 (racemic)
R = O=C(Nc1ccc(Oc2ccc(F)cc2)cc1)[C@@H]1C[C@@H](Cc2ccccc2)CN1C(=O)Cn1cncn1
Give the ascending ranking of the items by reported pIC50. // format: requested-order list of labels
Q, P, R

1 = O=C(Nc1ccc(Oc2ccc(F)cc2)cc1)[C@@H]1C[C@H](Cc2ccc(F)cc2)CN1C(=O)Cn1cncn1
2 = C[C@H](NC(=O)Cc1cnc[nH]1)C(=O)Nc1ccc(Oc2ccc(Cl)cc2)cc1
3 = O=C(Nc1ccc(Oc2ccc(F)cc2)cc1)[C@@H]1C[C@@H](Cc2ccc(F)cc2)CN1C(=O)Cn1ccnn1
Could you please sort these 3 entries by pIC50 from high to low? Write the labels, ordered according to the request.
3, 1, 2
(3: 8.24, 1: 7.32, 2: 6.12)

P = O=C(Cc1cnc[nH]1)N[C@@H](Cc1ccccc1)C(=O)Nc1ccc(Oc2ccc(Cl)cc2)cc1
Q = O=C(Cc1cnc[nH]1)N[C@@H](COCc1ccccc1)C(=O)Nc1ccc(Nc2ccccc2)cc1
R = O=C(Cc1c[nH]cn1)N[C@@H](COCc1ccccc1)C(=O)Nc1ccc(Oc2ccc(F)cc2)cc1
S = O=C(Cc1cnc[nH]1)N[C@@H](COCc1ccccc1)C(=O)Nc1ccc(Oc2ccc(Cl)cc2)cc1
T = O=C(Cc1cnc[nH]1)N[C@@H](COCc1ccccc1)C(=O)Nc1ccc(Oc2cccc(Cl)c2)cc1
Reorder: pIC50, max to min. Return value: ordered labels per request.
R, S, T, P, Q
(R: 7.89, S: 7.49, T: 7.02, P: 6.49, Q: 6.13)

A = O=C(CCCC(=O)c1cccs1)NC(COCc1ccccc1)C(=O)Nc1ccc(Oc2ccccc2)cc1 (racemic)
B = CN(C(=O)Cc1c[nH]cn1)[C@@H](COCc1ccccc1)C(=O)Nc1ccc(Oc2ccccc2)cc1
Which value of pIC50 is greater, the one for A or the one for B ? Answer with the label corresponding to your selection.
B
